Species on record: Oryctolagus cuniculus
Experiment: Blockade of calcium-evoked contractions evaluated in depolarized rabbit aortic strips
Type: functional
Settings: Aorta
pIC50: −log10 of the molar value.
Class condition met: pIC50 at least 8. Class condition not met: pIC50 below 8.

Here are 5 compounds together with their reported answers.
compound | label class
CO/C(O)=C1\C(C)=NC(C)=C(C(=O)OCCN2C(=O)c3ccccc3S2(=O)=O)C1c1cccc([N+](=O)[O-])c1 (stereo unspecified) | condition not met
COCCO/C(O)=C1\C(C)=NC(C)=C(C(=O)OCCN2C(=O)c3ccccc3S2(=O)=O)C1c1cccc([N+](=O)[O-])c1 (stereo unspecified) | condition not met
CO/C(O)=C1\C(C)=NC(C)=C(C(=O)OCCCN2C(=O)c3ccccc3S2(=O)=O)C1c1ccccc1Cl (stereo unspecified) | condition met
CC1=NC(C)=C(C(=O)OCCN2C(=O)c3ccccc3S2(=O)=O)C(c2cccc(Cl)c2Cl)/C1=C(\O)OC(C)(C)C (stereo unspecified) | condition met
CC1=NC(C)=C(C(=O)OCCN2C(=O)c3ccccc3S2(=O)=O)C(c2cccc(Cl)c2Cl)/C1=C(\O)OC(C)C (stereo unspecified) | condition met

As a next step, examine the compound that follows.
INPUT: API: above_or_equal(metric=pIC50, cutoff=8) for item CC1=NC(C)=C(C(=O)OCCCN2C(=O)c3ccccc3S2(=O)=O)C(c2cccc(Cl)c2Cl)/C1=C(\O)OC(C)C (stereo unspecified)
OUTPUT: condition met
